# SYSTEM: T1, Tejas LOTUS (Drosophila, UniProt A1Z9P1 6-79)
# T1 sequence: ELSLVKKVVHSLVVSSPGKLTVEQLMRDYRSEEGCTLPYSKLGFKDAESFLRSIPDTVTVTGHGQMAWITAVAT
# EXPERIMENT_NOTES: ELISA

>  <BINDER>
GGUGGGCAGGGGAGUGGGGGUGGG (structured_RNA) [Cluster G4-1 RNA]

>  <binding result>
binds

$$$$
>  <BINDER>
GGUCCGCAGCCGAGUCCGGGUCCG (ssRNA) [Cluster G4-1 mut RNA]

>  <binding result>
no binding

$$$$
>  <BINDER>
UUACCGUUACCGUUACCGUUACCG (ssRNA) [TERRA G4 mut RNA]

>  <binding result>
no binding

$$$$
>  <BINDER>
UUAGGGUUAGGGUUAGGGUUAGGG (structured_RNA) [TERRA G4 RNA]

>  <binding result>
binds

$$$$

Data provenance is paper PMC7498356.
